- System: effets β2 (diminution de la pression artérielle diastolique) de l'isoprénaline
- protocol_text: β-blocking activity: inhibition of the β2 effects of intravenous isoprenaline in anaesthetised dogs
- Assay type: in vivo, chiens
- experimental_setup: Canis lupus familiaris, iv; 0,010 mg/kg I.V., dog; inhibition given with negative sign; read-out: % d'inhibition des effets β2^⊕ de l'Isoprénaline
- Experimental: Des chiens tout-venants mâles ou femelles sont anesthésiés au mébubarbital sodique (30 mg/kg I.V.) et ventilés artificiellement par une pompe Pesty RPP. Ils sont supplémentés en oxygène. On mesure: • - la pression carotidienne systolique et diastolique • - la force contractile du myocarde. Les signaux sont amplifiés et enregistrés sur Dynograph Beckman. […]
Catalogue of inhibition at 0.01 mg/kg values
reported_property: inhibition at 0.01 mg/kg (%)

[[record]]
molecule = "CC(C)NCC(O)COc1ccc(NC(=O)Cc2cccs2)cc1Cl (stereo not shown)"
value_measured = -18

[[record]]
molecule = "C=CCc1cc(NC(=O)Cc2ccsc2)ccc1OCC(O)CNC(C)(C)C (stereo not shown)"
value_measured = -6

[[record]]
molecule = "CC(C)(C)NCC(O)COc1ccc(NC(=O)Cc2ccsc2)cc1C#N (stereo not shown)"
value_measured = -8

[[record]]
molecule = "CC(C)NCC(O)COc1ccc(NC(=O)Cc2ccsc2)cc1C#N (stereo not shown)"
value_measured = -33

[[record]]
molecule = "CC(C)NCC(O)COc1ccc(NC(=O)Cc2cccs2)cc1C#N (stereo not shown)"
value_measured = 0

[[record]]
molecule = "CC(C)NCC(O)COc1ccc(NC(=O)Cc2cccs2)cc1F (stereo not shown)"
value_measured = -46

[[record]]
molecule = "CC(C)(C)NCC(O)COc1ccc(NC(=O)Cc2cccs2)cc1C#N (stereo not shown)"
value_measured = -16

